- Test system: Pseudomonas aeruginosa
- assay: Antibacterial activity against Pseudomonas aeruginosa ATCC 27853 after 16-20 hrs by microdilution broth method
- Type: functional
property: MIC

[[record]]
inputsmiles = "CC(=O)N[C@H]1[C@H](O)[C@@H](N)[C@@H](O[C@H]2[C@H](O)[C@@H](O[C@H]3O[C@H](CO)[C@@H](O)[C@H](N)[C@H]3O)[C@H](N)C[C@@H]2N)O[C@@H]1CN"
recordedresult = "4 µg/mL"

[[record]]
inputsmiles = "Cc1ccccc1C(=O)NCC(=O)N[C@H]1[C@H](O)[C@@H](N)[C@@H](O[C@H]2[C@H](O)[C@@H](O[C@H]3O[C@H](CO)[C@@H](O)[C@H](N)[C@H]3O)[C@H](N)C[C@@H]2N)O[C@@H]1CN"
recordedresult = "32 µg/mL"

[[record]]
inputsmiles = "NC[C@H]1O[C@H](O[C@H]2[C@H](O)[C@@H](O[C@H]3O[C@H](CO)[C@@H](O)[C@H](N)[C@H]3O)[C@H](N)C[C@@H]2N)[C@H](N)[C@@H](O)[C@@H]1O"
recordedresult = "64 µg/mL"

